Test system: SH-SY5Y
Test: Cytotoxicity against human SH-SY5Y cells after 72 hrs by MTT assay
Type: functional

# compound, target_or_system, CC50 [µM]
data = [
    ("COc1cc(OC)c2c(=O)oc([C@H](Cl)[C@@H](O)CCl)cc2c1 (relative stereo)", "SH-SY5Y", 39.2),
    ("COc1cc(OC)c2c(=O)oc(C[C@@H](O)C(Cl)Cl)cc2c1", "SH-SY5Y", 19.4),
    ("COc1cccc2c1C(=O)c1c(O)c3c(c(O)c1C2=O)C[C@@](O)(C(=O)CO)C[C@@H]3O[C@H]1C[C@H](N)[C@H](O)[C@H](C)O1", "SH-SY5Y", 0.7),
    ("COc1cc(OC)c2c(=O)oc([C@@H](Cl)[C@@H](O)CCl)cc2c1 (relative stereo)", "SH-SY5Y", 36.2),
]
